Biological target: AgLsb4
Test: SPOT peptide array binding signal intensity (averaged, normalized) (arbitrary units (background-subtracted, floor 0; scale differs between SH3 domains)); higher = stronger binding of the SH3 domain to the peptide
EXPERIMENTAL_READOUT: SPOT peptide array binding signal intensity
Reply with the value as a number alone.

Report SPOT peptide array binding signal intensity for TSIEIPKRSPLRFTS please.
16.5

Report SPOT peptide array binding signal intensity for DAPASKPSVPPRNYF please.
69.5

Report SPOT peptide array binding signal intensity for NFKRLLPRDPSEKSS please.
50

Report SPOT peptide array binding signal intensity for SLSRRRFSLPSMPNV please.
41.5

Report SPOT peptide array binding signal intensity for FLIKFTPKFPQSIDH please.
1180

Report SPOT peptide array binding signal intensity for RVTRKRPREPKSTND please.
72

Report SPOT peptide array binding signal intensity for VNFRRIPTGPDSPPT please.
5

Report SPOT peptide array binding signal intensity for SKIRPTPRKPSRMAT please.
176
